Target: Low molecular weight phosphotyrosine protein phosphatase (Saccharomyces cerevisiae S288c, UniProt P40347)
Sequence (P40347 whole entry): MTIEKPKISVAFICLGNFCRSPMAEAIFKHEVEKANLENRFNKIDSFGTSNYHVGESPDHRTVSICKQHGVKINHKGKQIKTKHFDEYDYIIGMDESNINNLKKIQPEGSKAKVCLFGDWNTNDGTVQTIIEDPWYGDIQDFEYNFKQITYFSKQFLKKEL
pIC50: −log10 of the molar value.
result.type: pIC50

O=C(O)c1ccc(CN2C(=O)/C(=C/c3cccc(Oc4ccccc4)c3)S/C2=N\c2ccccc2)cc1 :: 4.95

A: O=C(O)c1ccc(CN2C(=O)/C(=C/c3ccc4ccccc4c3)S/C2=N\c2ccccc2)cc1
B: O=C(O)c1ccc(CN2C(=O)/C(=C/c3cccc(OCc4ccccc4)c3)S/C2=N\c2ccccc2)cc1
Q. Please indicate which entry, A or B , has the lower recorded pIC50 value. Indicate your choice by writing its label.
A. A
